system: MMAC-SF; assay: cells; assay type: functional, cell-based; conditions: Homo sapiens;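 also: growth inhibition of human MMAC-SF cells, read out with a cell viability assay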
Description: SANGER: Inhibition of human MMAC-SF cell growth in a cell viability assay.
Measured Endpoint: IC50

{"columns": ["Input Smiles", "Result"],
 "data": [
  ["Cc1cc(N2CCOCC2)cc2[nH]c(-c3c(NC[C@@H](O)c4cccc(Cl)c4)cc[nH]c3=O)nc12", "0.5 µM"],
  ["OC[C@H](Cc1ccccc1)Nc1nc(Oc2ccc3c(c2)CCC3)nc2c1ncn2Cc1ccc(-c2ccccc2)cc1", "> 10.2 µM"],
  ["Nc1ccccc1NC(=O)c1ccc(CNC(=O)OCc2cccnc2)cc1", "> 5 µM"],
  ["CC1=C(/C=C/C(C)=C/C=C/C(C)=C/C(=O)O)C(C)(C)CCC1", "> 10 µM"]
]}
